# Assayed system: human histamine receptor type 4 (Homo sapiens, UniProt Q9H3N8)
# Sequence (Q9H3N8 whole entry): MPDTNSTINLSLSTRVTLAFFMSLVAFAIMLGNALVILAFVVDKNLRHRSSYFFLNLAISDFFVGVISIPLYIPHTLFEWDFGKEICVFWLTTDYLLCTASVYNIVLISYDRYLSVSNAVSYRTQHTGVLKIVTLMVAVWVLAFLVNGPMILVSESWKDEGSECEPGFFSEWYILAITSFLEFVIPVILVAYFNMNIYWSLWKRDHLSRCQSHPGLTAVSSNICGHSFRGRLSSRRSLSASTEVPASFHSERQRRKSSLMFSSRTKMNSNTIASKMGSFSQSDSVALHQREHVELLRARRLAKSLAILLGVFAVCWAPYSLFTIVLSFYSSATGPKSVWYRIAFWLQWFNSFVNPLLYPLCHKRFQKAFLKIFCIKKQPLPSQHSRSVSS
# Method description: In vitro histamine receptor cell-based assay, H4R antagonist (aequorin bioluminescence)
# Protocol conditions: CHO-K1 cells expressing human H4 receptor, aequorin and Gα16; histamine at EC80
Listed below: IC50 values for each entry.

Below, 9 molecules whose answers are already recorded.
CCn1c2ccccc2c2cc(CN3CCCC(C(N)=O)C3)ccc21 (stereo not shown) :: 180 nM
CCn1c2ccccc2c2cc(CN3CCCC(c4cnn[nH]4)C3)ccc21 (stereo not shown) :: 960 nM
CCn1c2ccccc2c2cc(CN3CCCC(n4ccnn4)C3)ccc21 (stereo not shown) :: 2280 nM
CCn1c2ccccc2c2cccc(CN3CCN(C)CC3)c21 :: 9640 nM
CCn1c2ccccc2c2cc(CN3CCCC(CO)C3)ccc21 (stereo not shown) :: 1460 nM
CN(C)CCCn1c2ccccc2c2cc(CN3CCCC(N)C3)ccc21 (stereo not shown) :: 55900 nM
CCn1c2ccccc2c2cc(CN3CCCC(c4ccn[nH]4)C3)ccc21 (stereo not shown) :: 1070 nM
CCn1c2ccccc2c2cc(CN3CCCC(C(=O)O)C3)ccc21 (stereo not shown) :: 6150 nM
CCn1c2ccccc2c2cc(CN3CCNCC3)ccc21 :: 12600 nM

Turning now to a further molecule:
## Input Form field - read-out: IC50; system: human histamine receptor type 4 (Homo sapiens, UniProt Q9H3N8); submitted item: CCn1c2ccccc2c2cc(CN3CCCC(c4cnc[nH]4)C3)ccc21 (stereo not shown)
## Output 2750 nM

* * *

Here, each record is paired with measured IC50 data.
# Assayed system: human histamine receptor type 4 (Homo sapiens)
# Method description: In vitro histamine receptor cell-based assay, H4R antagonist (aequorin bioluminescence)
# Protocol conditions: CHO-K1 cells expressing human H4 receptor, aequorin and Gα16; histamine at EC80
Kindly provide the numeric value in nM only, without the unit symbol.

CCn1c2ccccc2c2cc(CN3CCCC(C#N)C3)ccc21 (stereo not shown) [Example 13] :: 1030
CCn1c2ccccc2c2cc(CN3CCCC(C(=O)N(C)C)C3)ccc21 (stereo not shown) [Example 20] :: 1100

## Input Param item = CCn1c2ccccc2c2cc(CN3CCCC(c4cn[nH]c4)C3)ccc21 (stereo not shown) [Example 24] ; retrieve measured IC50.
## Output 4340

* * *

# Assayed system: human histamine receptor type 1 (Homo sapiens, UniProt P35367)
# Sequence (P35367 whole entry): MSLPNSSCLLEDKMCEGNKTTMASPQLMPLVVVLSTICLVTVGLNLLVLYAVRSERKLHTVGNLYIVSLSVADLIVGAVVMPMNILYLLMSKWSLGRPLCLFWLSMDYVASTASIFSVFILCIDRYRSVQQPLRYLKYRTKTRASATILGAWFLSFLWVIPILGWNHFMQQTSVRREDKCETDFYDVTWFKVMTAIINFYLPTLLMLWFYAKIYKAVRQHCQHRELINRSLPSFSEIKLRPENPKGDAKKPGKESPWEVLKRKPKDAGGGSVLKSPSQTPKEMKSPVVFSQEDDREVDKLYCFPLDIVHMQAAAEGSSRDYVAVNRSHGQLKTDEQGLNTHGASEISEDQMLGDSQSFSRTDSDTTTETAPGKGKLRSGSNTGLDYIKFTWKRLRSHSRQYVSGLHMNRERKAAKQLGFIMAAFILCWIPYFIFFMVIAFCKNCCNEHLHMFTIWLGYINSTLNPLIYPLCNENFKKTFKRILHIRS
# Method description: In vitro histamine receptor cell-based assay, H1R antagonist (aequorin bioluminescence)
# Protocol conditions: CHO-K1 cells expressing human H1 receptor and aequorin; histamine at EC80
pIC50: −log10 of the molar value.
Output condition met for pIC50 not less than 5; output condition not met otherwise.

Before answering, review these 8 worked examples.
CN(C)CCCn1c2ccccc2c2cc(CN3CCCC(C(N)=O)C3)ccc21 (stereo not shown) :: condition not met
CCn1c2ccccc2c2ccc(CN3CCCC(c4ccn[nH]4)C3)cc21 (stereo not shown) :: condition met
CCn1c2ccccc2c2c(CN3CCN(C)CC3)cccc21 :: condition not met
CCn1c2ccccc2c2cc(CN3CCCC(c4cnc[nH]4)C3)ccc21 (stereo not shown) :: condition met
CN(C)CCCn1c2ccccc2c2cc(CN3CCCC(N)C3)ccc21 (stereo not shown) :: condition not met
c1ccc2c(c1)[nH]c1ccc(CN3CCCC(c4ccn[nH]4)C3)cc12 (stereo not shown) :: condition not met
CCn1c2ccccc2c2ccc(CN3CCN(C)CC3)cc21 :: condition not met
CCn1c2ccccc2c2cc(CN3CCCC(C#N)C3)ccc21 (stereo not shown) :: condition met

## Input Could you tell me if the measured pIC50 of CCn1c2ccccc2c2cc(CN3CCCC(c4nnc[nH]4)C3)ccc21 (stereo not shown) reaches 5 or more?
## Output condition met

## Input # check: pIC50 of CCn1c2ccccc2c2cc(CN3CCCC(C(=O)N(C)C)C3)ccc21 (stereo not shown) is greater than or equal to 5
## Output condition met

## Input Decide: pIC50 of CCn1c2ccccc2c2cc(CN3CCCC(c4cn[nH]c4)C3)ccc21 (stereo not shown) >= 5?
## Output condition met

* * *

# Assayed system: human histamine receptor type 1 (Homo sapiens)
# Method description: In vitro histamine receptor cell-based assay, H1R antagonist (aequorin bioluminescence)
# Protocol conditions: CHO-K1 cells expressing human H1 receptor and aequorin; histamine at EC80
pIC50: −log10 of the molar value.
We use 6 as the dividing line for pIC50: on or above the line is label 1, below is label 0.

// below: answered molecules
CCn1c2ccccc2c2cc(CN3CCCC3)ccc21 [Example 8] :: label 0
CCn1c2ccccc2c2cc(CN3CCCC(CO)C3)ccc21 (stereo not drawn) [Example 12] :: label 0
CCn1c2ccccc2c2cc(CN3CCCC(n4ccnn4)C3)ccc21 (stereo not drawn) [Example 18] :: label 0
CN(C)CCCn1c2ccccc2c2cc(CN3CCCC(c4ccn[nH]4)C3)ccc21 (stereo not drawn) [Example 26] :: label 0
CCn1c2ccccc2c2cc(CN3CCCC(C)C3)ccc21 (stereo not drawn) [Example 6] :: label 0

## Input # check: pIC50 of CCn1c2ccccc2c2cc(CN3CC(C)CC(C)C3)ccc21 (stereo not drawn) [Example 4] is greater than or equal to 6
## Output label 0

## Input Could you tell me if the measured pIC50 of CCn1c2ccccc2c2cc(CN3CCCC(c4ccn[nH]4)C3)ccc21 (stereo not drawn) [Example 1] reaches 6 or more?
## Output label 1

## Input Is pIC50 at least 6? Consider CCn1c2ccccc2c2cc(CN3CCC(C)CC3)ccc21 [Example 5]
## Output label 0

## Input Would you say CCn1c2ccccc2c2cc(CN3CCN(C)CC3)ccc21 [Example 25] shows pIC50 at minimum 6?
## Output label 0

## Input Confirm if pIC50 reported for the molecule CCn1c2ccccc2c2cccc(CN3CCN(C)CC3)c21 [Example 33] is 6 or above.
## Output label 0

## Input Would you say CCn1c2ccccc2c2cc(CN3CCCC(c4cnn[nH]4)C3)ccc21 (stereo not drawn) [Example 23] shows pIC50 at minimum 6?
## Output label 1

## Input Could you tell me if the measured pIC50 of CCn1c2ccccc2c2cc(CN3CCNCC3)ccc21 [Example 9] reaches 6 or more?
## Output label 0

## Input Please tell me: is the molecule CCn1c2ccccc2c2cc(CN3CCC(O)CC3)ccc21 [Example 3] at or over 6 in terms of pIC50?
## Output label 0

* * *

Measured IC50, listed per entry.
# Assayed system: UniProt P35367
# Method description: In vitro histamine receptor cell-based assay, H1R antagonist (aequorin bioluminescence)
# Protocol conditions: CHO-K1 cells expressing human H1 receptor and aequorin; histamine at EC80
Reply numerically in µM, unit not repeated.

The examples below pair each entry with its known result.
CCn1c2c(c3cc(CN4CCCC(c5ccn[nH]5)C4)ccc31)CCCC2 (centres unmarked) :: 8.72
CCn1c2ccccc2c2cc(CN3CCCC(C(=O)O)C3)ccc21 (centres unmarked) :: 9.91
CCn1c2ccccc2c2cc(CN3CCOCC3)ccc21 :: 11.1
CCn1c2ccccc2c2cc(CN3CCCC(C(=O)NC)C3)ccc21 (centres unmarked) :: 0.95
CCn1c2ccccc2c2c(CN3CCCC(c4ccn[nH]4)C3)cccc21 (centres unmarked) :: 14.8

## Input What does the record list as IC50 for CCOC(=O)C1CCCN(Cc2ccc3c(c2)c2ccccc2n3CC)C1 (centres unmarked) ?
## Output 5.57

## Input Report IC50 for CCn1c2ccccc2c2cc(CN3CCCC(c4ncc[nH]4)C3)ccc21 (centres unmarked) please.
## Output 0.53
